biological target: nuclear factor-kappa B (NF-kB)-inducing kinase (NIK) (Homo sapiens, UniProt Q99558); construct: made in house; host or cells: baculovirus-infected insect cells; assay: NIK enzyme inhibition assay (Transcreener ADP fluorescence polarization, NIK ADP-FP); format: biochemical
Sequence (Q99558 whole entry): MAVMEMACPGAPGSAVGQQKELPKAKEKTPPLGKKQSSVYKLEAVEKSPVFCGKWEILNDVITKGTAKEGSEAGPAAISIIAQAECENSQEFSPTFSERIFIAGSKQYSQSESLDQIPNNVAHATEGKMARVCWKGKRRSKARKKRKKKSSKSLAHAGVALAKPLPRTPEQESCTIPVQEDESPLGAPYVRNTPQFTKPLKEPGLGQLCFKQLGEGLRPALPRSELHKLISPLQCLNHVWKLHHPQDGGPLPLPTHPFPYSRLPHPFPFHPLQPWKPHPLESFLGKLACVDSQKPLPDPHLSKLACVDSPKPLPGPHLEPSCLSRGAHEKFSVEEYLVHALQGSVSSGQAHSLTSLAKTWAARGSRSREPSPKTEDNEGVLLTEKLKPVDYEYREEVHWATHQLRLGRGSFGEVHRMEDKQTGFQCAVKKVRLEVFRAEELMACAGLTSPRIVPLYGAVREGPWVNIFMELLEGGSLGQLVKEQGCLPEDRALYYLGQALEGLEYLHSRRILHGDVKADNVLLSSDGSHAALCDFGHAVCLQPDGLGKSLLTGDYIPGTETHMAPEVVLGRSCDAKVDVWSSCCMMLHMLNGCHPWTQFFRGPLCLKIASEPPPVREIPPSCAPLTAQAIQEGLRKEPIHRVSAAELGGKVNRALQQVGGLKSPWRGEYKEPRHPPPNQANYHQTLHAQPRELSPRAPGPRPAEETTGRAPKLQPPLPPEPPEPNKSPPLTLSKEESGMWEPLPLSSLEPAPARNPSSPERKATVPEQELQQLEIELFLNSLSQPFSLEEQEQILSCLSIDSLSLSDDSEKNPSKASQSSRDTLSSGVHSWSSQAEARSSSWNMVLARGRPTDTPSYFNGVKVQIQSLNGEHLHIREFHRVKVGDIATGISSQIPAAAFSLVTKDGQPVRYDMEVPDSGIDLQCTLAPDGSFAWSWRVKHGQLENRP
Observation Type: Ki (nM)
One number for each entry, in nM.

CN1CC[C@@](O)(C#Cc2cccc(-c3nc(C(N)=O)cc(C(F)(F)F)n3)c2)C1=O [Example 17] ... 0.84

Batch: Ki for all items listed.
1. CN1CC[C@@](O)(C#Cc2cccc(-c3nc(C(N)=O)c4c(n3)N(C)CC4)c2)C1=O [Example 192]
2. CNc1cc(C(N)=O)nc(-c2cccc(C#C[C@]3(O)CCN(C)C3=O)c2)n1 [Example 12]

output:
1: 0.4; 2: 0.33
